- system.tested: Cytochrome P450 2C19 (Homo sapiens)
- Sequence (P33261 whole entry): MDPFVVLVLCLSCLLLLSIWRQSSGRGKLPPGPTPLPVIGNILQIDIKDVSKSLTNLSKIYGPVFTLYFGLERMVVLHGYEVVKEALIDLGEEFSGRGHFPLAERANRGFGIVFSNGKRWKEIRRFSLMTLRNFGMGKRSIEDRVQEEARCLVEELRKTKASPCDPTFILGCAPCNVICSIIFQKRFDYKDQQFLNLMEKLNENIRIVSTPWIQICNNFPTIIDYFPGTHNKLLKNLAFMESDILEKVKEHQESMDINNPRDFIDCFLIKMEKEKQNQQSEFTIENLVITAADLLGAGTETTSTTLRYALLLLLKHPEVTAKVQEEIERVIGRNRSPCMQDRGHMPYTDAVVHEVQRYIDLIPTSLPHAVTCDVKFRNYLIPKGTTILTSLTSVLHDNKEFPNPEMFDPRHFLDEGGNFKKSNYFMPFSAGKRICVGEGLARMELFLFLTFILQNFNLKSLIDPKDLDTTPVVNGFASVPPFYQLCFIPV
- test.description: Cytochrome panel assay with activity outcomes. Panel member name: p450-cyp2c19 Compounds with AC50 equal or less than 10 uM are considered active
- Assay type: functional
- assay.context: read-out: AC50
metric.name: AC50

Clc1ccc2oc(-c3cccnc3)nc2c1 14.1 µM (inconclusive)
Cc1ccc(S(=O)(=O)n2c3ccccc3c3nnc(C(=O)c4ccccc4)nc32)cc1 0.0126 µM (inconclusive)
Cc1cc(C)nc(Nc2n[nH]c(COc3ccc4ccccc4c3)n2)n1 17.8 µM (inconclusive)
CS(=O)(=O)N1CCC2(CCCN(c3ccccn3)C2)CC1 15.8 µM (inconclusive)
Cc1cccc(N2C(=O)NC(=O)/C(=C\c3cnn(-c4ccccc4)c3)C2=O)c1 39.8 µM (inconclusive)
Cn1ncc([N+](=O)[O-])c1C(=O)Nc1ccc2c(c1)OCCO2 0.0355 µM (inconclusive)
COc1ccc(-c2cc(C(F)(F)F)n3nc(C(=O)NCc4ccco4)c(Cl)c3n2)cc1 1.78 µM (inconclusive)
COCCn1c(C(=O)N(C)C)cc2c1C[C@H]1CN(C(=O)c3ccccc3)[C@@](Cc3ccc(F)cc3)(C(=O)OC)[C@@H]21 39.8 µM (inconclusive)
O=[N+]([O-])c1ccc2c(/N=N\c3ccc4ccccc4c3O)c(O)cc(S(=O)(=O)O)c2c1 2.51 µM (inconclusive)
CN1CCN(c2ncc3nc(-c4ccc(F)cc4)c(=O)n(C4CC4)c3n2)CC1 25.1 µM (inconclusive)
